Examples of compounds with documented pIC50 follow.
Target protein (sequence): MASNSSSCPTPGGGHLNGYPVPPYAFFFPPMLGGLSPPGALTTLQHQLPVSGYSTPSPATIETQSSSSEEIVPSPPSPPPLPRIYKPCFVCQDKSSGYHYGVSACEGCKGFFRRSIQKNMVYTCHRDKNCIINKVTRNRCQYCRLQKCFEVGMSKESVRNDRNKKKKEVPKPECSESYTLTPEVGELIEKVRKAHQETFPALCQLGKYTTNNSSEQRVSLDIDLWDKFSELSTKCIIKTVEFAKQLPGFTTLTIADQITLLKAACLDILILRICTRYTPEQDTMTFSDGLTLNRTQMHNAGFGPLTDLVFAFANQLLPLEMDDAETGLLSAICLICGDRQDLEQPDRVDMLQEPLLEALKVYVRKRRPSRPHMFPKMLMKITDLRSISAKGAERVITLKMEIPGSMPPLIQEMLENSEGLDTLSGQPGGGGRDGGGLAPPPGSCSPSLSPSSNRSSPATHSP
Please keep in mind that pIC50 is minus log10 of the molar concentration; only the number is needed.

CCCCCCCOc1cc2c(cc1C#Cc1ccc(C(=O)O)cc1)C(C)(C)CCS2(=O)=O : 6.62
CCCCCCCCc1cc2c(cc1/C(C)=C/C=C/C(C)=C/C(=O)O)C(C)(C)CCCS2(=O)=O : 7.33

We now examine a further compound.
pIC50 recorded for this compound, CCCCCCCOc1cc2c(cc1/C(C)=C/C=C/C(C)=C/C(=O)O)C(C)(C)CCCS2(=O)=O , is 6.74
